From: patent US20220177587A1

Target: CD28 (Homo sapiens, UniProt P10747)
Experiment: Flow binding to Jurkat/IL2 reporter cells (CD28)
Set-up: host or cells: Jurkat cells expressing an IL-2-luciferase reporter
Conditions: Table E23; CD80 IgV-Fc (inert) at 33.3 nM; Jurkat (CD28)
Experimental: Binding of selected immunomodulatory fusion proteins to cognate binding partners was assessed. […] Cells were sorted in a Bio-Rad S3 Cell Sorter (Bio-Rad Corp., USA) to >98% purity. […] For staining and analysis by flow cytometry, 100,000 cells of appropriate transfected cells were plated in 96-well round bottom plates. […] Cells were then washed twice with 150 μL/well stain buffer, fixed in 2% formaldehyde/PBS, and analyzed on Intellicyt flow cytometer (Intellicyt Corp., USA). […]
endpoint_name: CD28 MFI at 33.3 nM
A bare number is all that is needed in reply.

In: What CD28 MFI at 33.3 nM value was documented for this molecule, H18L/A26N/D46E/V68M/A71G/D90G (protein, UniProt P33681 35-288, looked up, variant H18L A26N D46E V68M A71G D90G) T-lymphocyte activation …: VIHVTKEVKEVATLSCGLNVSVEELNQTRIYWQKEKKMVLTMMSGEMNIWPEYKNRTIFDITNNLSIMILGLRPSDEGTYECVVLKYEKGAFKREHLAEVTLSVKADFPTPSISDFEIPTSNIRRIICSTSGGFPEPHLSWLENGEELNAINTTVSQDPETELYAVSSKLDFNMTTNHSFMCLIKYGHLRVNQTFNWNTTKQEHFPDNLLPSWAITLISVNGIFVICCLTYCFAPRCRERRRNERLRRESVRPV ?
Out: 7253
